Where do the numbers come from? From patent US20070117743A1.

Tested on: HeLa
measurement description: SRB colorimetric assay of cell growth and viability, HeLa
Format: cell-based, human
run parameters: 48 hours exposure; read-out: LC50 HELA
Where a SMILES comes first, the peptide text is derived from it. Bridges are numbered along the chain shown (N, C = ends). [ ]: non-standard residue; d: D form. The star is where a group is joined. d(aIle) = CC[C@H](C)[C@@H](N)C(=O)O; d(aThr) = C[C@@H](O)[C@@H](N)C(=O)O; Hexanoyl(5-Me) = CC(C)CCCC(=O)*; Orn = NCCC[C@H](N)C(=O)O; Dhb = C/C=C(\N)C(=O)O
endpoint: CC50 (µM)
Express your answer in µM, writing the number without its unit.

Hello, I am looking for reported CC50 with HeLa for C/C=C1\NC(=O)[C@H](Cc2ccccc2)NC(=O)[C@@H](C(C)C)NC(=O)[C@@H]([C@@H](C)CC)NC(=O)[C@H](NC(=O)[C@H](NC(=O)[C@H](CCCN)NC(=O)[C@H]2CCCN2C(=O)[C@H](NC(=O)[C@@H]2CCCN2C(=O)[C@@H](NC(=O)[C@H](NC(=O)CCCC(C)C)C(C)C)[C@@H](C)O)C(C)C)[C@@H](C)CC)[C@@H](C)OC(=O)[C@H](C(C)C)NC1=O [Compound 47, [Pro^11]-KF] ({Hexanoyl(5-Me)}-[dV]TP[dV][dP][Orn][d(aIle)][d(aThr)][d(aIle)][dV]F[Dhb]V; ester 8-C) . Could you help?
6.78
